tested on: HeLa Kyoto; experiment: melting temperature (median over replicates), in situ; higher = more thermally stable; settings: cell cycle stage: mitosis
melting temperature for assorted sequences

biopolymer-sequence: METQLSNGPTCNNTANGPTTINNNCSSPVDSGNTEDSKTNLIVNYLPQNMTQEELKSLFGSIGEIESCKLVRDKITGQSLGYGFVNYIDPKDAEKAINTLNGLRLQTKTIKVSYARPSSASIRDANLYVSGLPKTMTQKELEQLFSQYGRIITSRILVDQVTGISRGVGFIRFDKRIEAEEAIKGLNGQKPPGATEPITVKFANNPSQKTNQAILSQLYQSPNRRYPGPLAQQAQRFRLDNLLNMAYGVKRFSPMTIDGMTSLAGINIPGHPGTGWCIFVYNLAPDADESILWQMFGPFGAVTNVKVIRDFNTNKCKGFGFVTMTNYDEAAMAIASLNGYRLGDRVLQVSFKTNKTHKA [ELAVL2]
measurement-units: °C
melting temperature: 52.2

biopolymer-sequence: MGNVLAASSPPAGPPPPPAPALVGLPPPPPSPPGFTLPPLGGSLGAGTSTSRSSERTPGAATASASGAAEDGACGCLPNPGTFEECHRKCKELFPIQMEGVKLTVNKGLSNHFQVNHTVALSTIGESNYHFGVTYVGTKQLSPTEAFPVLVGDMDNSGSLNAQVIHQLGPGLRSKMAIQTQQSKFVNWQVDGEYRGSDFTAAVTLGNPDVLVGSGILVAHYLQSITPCLALGGELVYHRRPGEEGTVMSLAGKYTLNNWLATVTLGQAGMHATYYHKASDQLQVGVEFEASTRMQDTSVSFGYQLDLPKANLLFKGSVDSNWIVGATLEKKLPPLPLTLALGAFLNHRKNKFQCGFGLTIG [TOMM40]
measurement-units: °C
melting temperature: 61.7

biopolymer-sequence: MGREFGNLTRMRHVISYSLSPFEQRAYPHVFTKGIPNVLRRIRESFFRVVPQFVVFYLIYTWGTEEFERSKRKNPAAYENDK [UQCRQ]
measurement-units: °C
melting temperature: 51.8

biopolymer-sequence: MASVTRAVFGELPSGGGTVEKFQLQSDLLRVDIISWGCTITALEVKDRQGRASDVVLGFAELEGYLQKQPYFGAVIGRVANRIAKGTFKVDGKEYHLAINKEPNSLHGGVRGFDKVLWTPRVLSNGVQFSRISPDGEEGYPGELKVWVTYTLDGGELIVNYRAQASQATPVNLTNHSYFNLAGQASPNINDHEVTIEADTYLPVDETLIPTGEVAPVQGTAFDLRKPVELGKHLQDFHLNGFDHNFCLKGSKEKHFCARVHHAASGRVLEVYTTQPGVQFYTGNFLDGTLKGKNGAVYPKHSGFCLETQNWPDAVNQPRFPPVLLRPGEEYDHTTWFKFSVA [GALM]
measurement-units: °C
melting temperature: 51.4

biopolymer-sequence: MAAIRMGKLTTMPAGLIYASVSVHAAKQEESKKQLVKPEQLPIYTAPPLQSKYVEEQPGHLQMGFASIRTATGCYIGWCKGVYVFVKNGIMDTVQFGKDAYVYLKNPPRDFLPKMGVITVSGLAGLVSARKGSKFKKITYPLGLATLGATVCYPVQSVIIAKVTAKKVYATSQQIFGAVKSLWTKSSKEESLPKPKEKTKLGSSSEIEVPAKTTHVLKHSVPLPTELSSEAKTKSESTSGATQFMPDPKLMDHGQSHPEDIDMYSTRS [APOOL]
measurement-units: °C
melting temperature: 57.3

* * *

tested on: HeLa Kyoto; test: melting temperature (median over replicates), in situ; higher = more thermally stable; details: cell cycle stage: mitosis
melting temperature for assorted sequences
parameter-measured: melting temperature (°C)

biopolymer-sequence: MAQRGGARRPRGDRERLGSRLRALRPGREPRQSEPPAQRGPPPSGRPPARSTASGHDRPTRGAAAGARRPRMKKKTRRRSTRSEELTRSEELTLSEEATWSEEATQSEEATQGEEMNRSQEVTRDEESTRSEEVTREEMAAAGLTVTVTHSNEKHDLHVTSQQGSSEPVVQDLAQVVEEVIGVPQSFQKLIFKGKSLKEMETPLSALGIQDGCRVMLIGKKNSPQEEVELKKLKHLEKSVEKIADQLEELNKELTGIQQGFLPKDLQAEALCKLDRRVKATIEQFMKILEEIDTLILPENFKDSRLKRKGLVKKVQAFLAECDTVEQNICQETERLQSTNFALAE [BAG1]
assayed-target: HeLa Kyoto
parameter-measured: melting temperature
reported: 53.7
//
biopolymer-sequence: MADEIAKAQVARPGGDTIFGKIIRKEIPAKIIFEDDRCLAFHDISPQAPTHFLVIPKKHISQISVAEDDDESLLGHLMIVGKKCAADLGLNKGYRMVVNEGSDGGQSVYHVHLHVLGGRQMHWPPG [HINT1]
assayed-target: HeLa Kyoto
parameter-measured: melting temperature
reported: 56
//
biopolymer-sequence: MDSDDEMVEEAVEGHLDDDGLPHGFCTVTYSSTDRFEGNFVHGEKNGRGKFFFFDGSTLEGYYVDDALQGQGVYTYEDGGVLQGTYVDGELNGPAQEYDTDGRLIFKGQYKDNIRHGVCWIYYPDGGSLVGEVNEDGEMTGEKIAYVYPDERTALYGKFIDGEMIEGKLATLMSTEEGRPHFELMPGNSVYHFDKSTSSCISTNALLPDPYESERVYVAESLISSAGEGLFSKVAVGPNTVMSFYNGVRITHQEVDSRDWALNGNTLSLDEETVIDVPEPYNHVSKYCASLGHKANHSFTPNCIYDMFVHPRFGPIKCIRTLRAVEADEELTVAYGYDHSPPGKSGPEAPEWYQVELKAFQATQQK [SETD7]
assayed-target: HeLa Kyoto
parameter-measured: melting temperature
reported: 50.5

* * *

test system: HeLa Kyoto; assay: thermal stability score vs G1/S (z-score of summed log2 fold changes over temperatures); higher = more thermally stable than in G1/S; settings: cell cycle stage: mitosis
parameter-measured: thermal stability score

biopolymer-sequence: MSLLLLLLLVSYYVGTLGTHTEIKRVAEEKVTLPCHHQLGLPEKDTLDIEWLLTDNEGNQKVVITYSSRHVYNNLTEEQKGRVAFASNFLAGDASLQIEPLKPSDEGRYTCKVKNSGRYVWSHVILKVLVRPSKPKCELEGELTEGSDLTLQCESSSGTEPIVYYWQRIREKEGEDERLPPKSRIDYNHPGRVLLQNLTMSYSGLYQCTAGNEAGKESCVVRVTVQYVQSIGMVAGAVTGIVAGALLIFLLVWLLIRRKDKERYEEEERPNEIREDAEAPKARLVKPSSSSSGSRSSRSGSSSTRSTANSASRSQRTLSTDAAPQPGLATQAYSLVGPEVRGSEPKKVHHANLTKAETTPSMIPSQSRAFQTV [CLMP]
reported: -0.751

biopolymer-sequence: MTSFRLALIQLQISSIKSDNVTRACSFIREAATQGAKIVSLPECFNSPYGAKYFPEYAEKIPGESTQKLSEVAKECSIYLIGGSIPEEDAGKLYNTCAVFGPDGTLLAKYRKIHLFDIDVPGKITFQESKTLSPGDSFSTFDTPYCRVGLGICYDMRFAELAQIYAQRGCQLLVYPGAFNLTTGPAHWELLQRSRAVDNQVYVATASPARDDKASYVAWGHSTVVNPWGEVLAKAGTEEAIVYSDIDLKKLAEIRQQIPVFRQKRSDLYAVEMKKP [NIT2]
reported: -1.62

biopolymer-sequence: MAKKTYDLLFKLLLIGDSGVGKTCVLFRFSDDAFNTTFISTIGIDFKIKTVELQGKKIKLQIWDTAGQERFHTITTSYYRGAMGIMLVYDITNGKSFENISKWLRNIDEHANEDVERMLLGNKCDMDDKRVVPKGKGEQIAREHGIRFFETSAKANINIEKAFLTLAEDILRKTPVKEPNSENVDISSGGGVTGWKSKCC [RAB10]
reported: -1.23

* * *

melting temperature for assorted substances
tested on: HeLa Kyoto; test: melting temperature (median over replicates), in situ; higher = more thermally stable; details: cell cycle stage: G1/S
parameter-measured: melting temperature (°C)

substance: MASSSGNDDDLTIPRAAINKMIKETLPNVRVANDARELVVNCCTEFIHLISSEANEICNKSEKKTISPEHVIQALESLGFGSYISEVKEVLQECKTVALKRRKASSRLENLGIPEEELLRQQQELFAKARQQQAELAQQEWLQMQQAAQQAQLAAASASASNQAGSSQDEEDDDDI [DR1]
parameter-measured: melting temperature
measurement-units: °C
reported: 58.2
//
substance: RABGAP1
parameter-measured: melting temperature
measurement-units: °C
reported: 50.9
//
substance: MSAPFEERSGVVPCGTPWGQWYQTLEEVFIEVQVPPGTRAQDIQCGLQSRHVALSVGGREILKGKLFDSTIADEGTWTLEDRKMVRIVLTKTKRDAANCWTSLLESEYAADPWVQDQMQRKLTLERFQKENPGFDFSGAEISGNYTKGGPDFSNLEK [NUDCD2]
parameter-measured: melting temperature
measurement-units: °C
reported: 47.7
//
substance: MAAQKDQQKDAEAEGLSGTTLLPKLIPSGAGREWLERRRATIRPWSTFVDQQRFSRPRNLGELCQRLVRNVEYYQSNYVFVFLGLILYCVVTSPMLLVALAVFFGACYILYLRTLESKLVLFGREVSPAHQYALAGGISFPFFWLAGAGSAVFWVLGATLVVIGSHAAFHQIEAVDGEELQMEPV [RABAC1]
parameter-measured: melting temperature
measurement-units: °C
reported: 59.6
//
substance: MSVGFIGAGQLAFALAKGFTAAGVLAAHKIMASSPDMDLATVSALRKMGVKLTPHNKETVQHSDVLFLAVKPHIIPFILDEIGADIEDRHIVVSCAAGVTISSIEKKLSAFRPAPRVIRCMTNTPVVVREGATVYATGTHAQVEDGRLMEQLLSSVGFCTEVEEDLIDAVTGLSGSGPAYAFTALDALADGGVKMGLPRRLAVRLGAQALLGAAKMLLHSEQHPGQLKDNVSSPGGATIHALHVLESGGFRSLLINAVEASCIRTRELQSMADQEQVSPAAIKKTILDKVKLDSPAGTALSPSGHTKLLPRSLAPAGKD [PYCR1]
parameter-measured: melting temperature
measurement-units: °C
reported: 54.9
//
substance: MSEKENNFPPLPKFIPVKPCFYQNFSDEIPVEHQVLVKRIYRLWMFYCATLGVNLIACLAWWIGGGSGTNFGLAFVWLLLFTPCGYVCWFRPVYKAFRADSSFNFMAFFFIFGAQFVLTVIQAIGFSGWGACGWLSAIGFFQYSPGAAVVMLLPAIMFSVSAAMMAIAIMKVHRIYRGAGGSFQKAQTEWNTGTWRNPPSREAQYNNFSGNSLPEYPTVPSYPGSGQWP [SCAMP4]
parameter-measured: melting temperature
measurement-units: °C
reported: 57
//
substance: MAEGNTLISVDYEIFGKVQGVFFRKHTQAEGKKLGLVGWVQNTDRGTVQGQLQGPISKVRHMQEWLETRGSPKSHIDKANFNNEKVILKLDYSDFQIVK [ACYP1]
parameter-measured: melting temperature
measurement-units: °C
reported: 52.3
//
substance: MTDGDYDYLIKLLALGDSGVGKTTFLYRYTDNKFNPKFITTVGIDFREKRVVYNAQGPNGSSGKAFKVHLQLWDTAGQERFRSLTTAFFRDAMGFLLMFDLTSQQSFLNVRNWMSQLQANAYCENPDIVLIGNKADLPDQREVNERQARELADKYGIPYFETSAATGQNVEKAVETLLDLIMKRMEQCVEKTQIPDTVNGGNSGNLDGEKPPEKKCIC [RAB27B]
parameter-measured: melting temperature
measurement-units: °C
reported: 55.7

These measurements were taken from the supplement of paper PMC5998384.
